tested on: RPMI-8226; experiment: NCI tumour cell line growth inhibition, 48 h
Activity calls are given as the source filed them. Cut-off read from the data, not from the text of the source: active = GI50 up to about 1.1 µM and inactive = higher.
Quantity: GI50

Item "CCC(=O)C1(c2ccccc2)CCN(C)CC1" ; assay system RPMI-8226; GI50 reported as > 100 µM (inactive)

The reported RPMI-8226 GI50 of "Cc1noc(-c2ccc(C(=O)O)[nH]2)c1Br" is > 100 µM (inactive)

Measured GI50 for this entry "[N-]=[N+]=NC1=C(C(=O)c2ccccc2)C(=O)c2cccc3cccc1c23" on RPMI-8226: 37.2 µM (inactive)

# "O=C(O)[C@@H]1C[C@@H](O)CN1C(=O)OCc1ccccc1" with RPMI-8226: GI50 is > 100 µM (inactive)

---

system: SNB-19; assay: NCI tumour cell line growth inhibition, 48 h
Calls of active or inactive are those of the source. No stated cut-off is given here; in the data, active = GI50 up to about 1.1 µM and inactive = higher.
Quantity: GI50

"Cc1cc2nc3c(N)nn(CCCN(C)C)c3nc2cc1C" has a reported GI50 of > 100 µM (inactive)

// field: GI50; key: "O=C1c2c(O)cccc2Cc2cc(CO)cc(O)c21" ; value = 2.49 µM (inactive)

// GI50 value for NC(CSC(c1ccccc1)(c1ccccc1)c1ccccc1)C(=O)O (stereo not given) : 1.22 µM (inactive)

So, N#CC(C(=O)/C(=N/NC(=O)c1ccccc1O)C(C#N)c1ccc(Cl)cc1)c1ccc(Cl)cc1 (stereo not given) ? Its GI50 was 15 µM (inactive)

For this compound ( "CC(=O)NNc1nc(C)c(C(=O)NNC(=O)C(=O)Nc2c(C)cccc2C(C)C)s1" ), measured GI50 is > 100 µM (inactive)

---

system: SF-539; assay: NCI tumour cell line growth inhibition, 48 h
The source made the active and inactive calls. Cut-off read from the data, not from the text of the source: active = GI50 up to about 1.1 µM and inactive = higher.
Quantity: GI50

The compound COc1cc2c3cc1Oc1c(OC)c(OC)cc4c1C(Cc1ccc(O)c(c1)Oc1ccc(cc1)CC3N(C)CC2)N(C)CC4 (stereo not drawn) showed GI50 equal to 24.8 µM (inactive)

Entry under test: "O=C1C=CC=C/C1=C1\N=C(c2ccccc2OCC(=O)c2ccc(Br)cc2)SS1" . Its GI50 was 24.4 µM (inactive)

Record summary for "C[C@H](NC(=O)c1ccc(CNC(=O)/C=C/c2cccc(Oc3ccccc3)c2)cc1)c1ccccc1" : reported GI50 = 27 µM (inactive)

For "Cn1c(=O)c2sc3cc4c(cc3c2c2ccccc21)sc1c(=O)n(C)c2ccccc2c14" the compound record lists GI50 as 76 µM (inactive)

Note to self: GI50 recorded for "COc1ccc(/C=C/C(=O)c2ccc(Br)cc2)cc1" was > 100 µM (inactive)

The compound listed as CC(NC(=O)OC(C)(C)C)C(=O)C(N)=O (stereo not drawn) has a reported GI50 of > 100 µM (inactive)

response.value for "O=C(O)[C@@H]1C[C@@H](O)CN1C(=O)OCc1ccccc1" (field: GI50) = > 100 µM (inactive)

The recorded GI50 for entry "Cc1c(CCCl)c(=O)n2c([nH]c3ccccc32)c1C#N" equals 1.48 µM (inactive)

Entry "COc1ccccc1/C=C(\NC(=O)c1ccccc1)c1nc2ccc(Cl)cc2[nH]1" ; GI50 = 56.2 µM (inactive)

The compound listed as "O=c1c2cc(O)ccc2n2nnc3ccc(NCCNCCO)c1c32" has a reported GI50 of 4.56 µM (inactive)

# GI50 of "C[C@H]1OC(=O)[C@@H]2N=NN(Cc3ccccc3)[C@H]12" = > 100 µM (inactive)

Reported GI50 for N#CC(C(=O)/C(=N/NC(=O)c1ccccc1O)C(C#N)c1ccc(Cl)cc1)c1ccc(Cl)cc1 (stereo not drawn) was 17.3 µM (inactive)

// recorded GI50 for "COc1cc2c(c3oc(-c4ccc5c(c4)OCO5)c(O)c(=O)c13)CCC(C)(C)O2" : > 100 µM (inactive)

Lab note: O=C1N(Cc2ccccc2)C2CSCC2N1Cc1ccccc1 (stereo not drawn) gave GI50 of 24.5 µM (inactive)

Documented GI50 of "CCOC(=O)/C(C[C@H]1OC(C)(C)O[C@@H]1[C@H]1COC(C)(C)O1)=N/O" : > 100 µM (inactive)

Entry COC(=O)C(COC(=O)/C=C/c1ccc(OC(C)=O)c(OC(C)=O)c1)NC(=O)/C=C/c1ccc(OC(C)=O)c(OC(C)=O)c1 (stereo not drawn) ; GI50 = 31.8 µM (inactive)

So, CCCCCCCCCCCCCCNC(=O)CCC(NC(=O)c1ccc(N(C)Cc2cnc3nc(N)nc(N)c3n2)cc1)C(=O)NCCCCCCCCCCCCCC (stereo not drawn) ? Its GI50 was 0.908 µM (active)

Looking up "c1ccc(SC(CCCCC(Sc2ccccc2)Sc2ccccc2)Sc2ccccc2)cc1" , I see its GI50 listed as > 100 µM (inactive)

---

system: SF-268; assay: NCI tumour cell line growth inhibition, 48 h
Activity calls are given as the source filed them. Cut-off read from the data, not from the text of the source: active = GI50 up to about 1.1 µM and inactive = higher.
For each record, write down the corresponding GI50.

Item: "Cc1noc(-c2ccc(C(=O)O)[nH]2)c1Br" | System: SF-268 | GI50: 46.1 µM (inactive)

Per the reported SF-268 data, O=C(c1ccccc1)N1OCCC1Nc1ccc(Br)cc1 (centres undefined) has GI50 of 5.21 µM (inactive)

Log: SF-268, compound O=C1OC(c2ccc(Cl)c3ccccc23)c2ccccc21 (centres undefined) , GI50 = > 100 µM (inactive)

Simply: "NNC(=O)c1c(Cl)c(Cl)c(Cl)c(Cl)c1-c1nc2ccccc2[nH]1" , SF-268, GI50 = 17.4 µM (inactive)

---

tested on: M14; assay: NCI tumour cell line growth inhibition, 48 h
Calls of active or inactive are those of the source. No stated cut-off is given here; in the data, active = GI50 up to about 1.1 µM and inactive = higher.
Choose one outcome from this list and give only that: active, inactive

INPUT: Recorded test outcome, item "N#Cc1c(-c2ccc(Cl)cc2)cc(-c2ccc(Nc3ccnc4cc(Cl)ccc34)cc2)nc1N"
OUTPUT: inactive

INPUT: Hi team, can someone confirm the assay call for "Cc1ccc2c3c1O[C@H]1c4nc5ccccc5cc4C[C@@]4(O)[C@@H](C2)N(CC2CC2)CC[C@]314" ?
OUTPUT: inactive

INPUT: # lookup: test call for "CCNCC(=O)O[C@]1(CC)C(=O)OCc2c1cc1n(c2=O)Cc2cc3ccccc3nc2-1"
OUTPUT: active

INPUT: What classification did "COc1cc2c(c(OC)c1OC)-c1ccc(SC)c(=O)cc1[C@@H](NCc1cccc([N+](=O)[O-])c1)CC2" end up with in this test?
OUTPUT: active

INPUT: Given O=C1[C@H]2ON(c3ccccc3)C(c3ccc([N+](=O)[O-])cc3)[C@H]2C(=O)N1c1ccc(Cc2ccc(N3C(=O)[C@@H]4ON(c5ccccc5)C(c5ccc([N+](=O)[O-])cc5)[C@@H]4C3=O)cc2)cc1 (stereo partly specified) , state the outcome it received in this test.
OUTPUT: inactive

INPUT: Per the records of this test, what outcome belongs to "COc1ccc(-c2nc(O)c3ccccc3n2)cc1OC" ?
OUTPUT: inactive

INPUT: Which result was noted for this compound in the test: Cc1ccc([N+](=O)[O-])cc1S(=O)(=O)Nc1ccc(C2=NN(S(=O)(=O)c3cc([N+](=O)[O-])ccc3C)C(c3ccccc3O)C2)cc1 (stereo unspecified)
OUTPUT: inactive

INPUT: Hey, what did the test say about "CCN(CC)CCNc1ccc2nnn3c4ccc(C)cc4c(=O)c1c23" ?
OUTPUT: inactive

INPUT: // return assay outcome for COc1ccc([S+]([O-])Cc2cc(OC)ccc2OC)cc1 (stereo unspecified)
OUTPUT: inactive

INPUT: Any idea what this test logged for "O=C1C(Cl)=C(Cl)C(=O)C(CCNc2nccs2)=C1Cl" ?
OUTPUT: inactive

INPUT: // param item: "CCOC(=O)c1csc(NC(=O)CN2CCN(C)CC2)n1" ; yields the recorded call
OUTPUT: inactive

INPUT: Any idea what this test logged for "Cc1cc2c(cc1Cl)SC(NNC(=O)c1ccccc1)=NS2(=O)=O" ?
OUTPUT: inactive

INPUT: I would be grateful if you could indicate the recorded call for N#CC(C(=O)/C(=N\NC(N)=O)C(C#N)c1ccccc1)c1ccccc1 (stereo unspecified) .
OUTPUT: inactive

INPUT: Query: recorded result category for "COc1ccccc1NC(=O)CC(=O)n1nc(C)c(/N=N/c2ccccc2F)c1C" in this test
OUTPUT: inactive

INPUT: Record request — test call for O=C(CCCCCCC(=O)Nc1cccnc1)NO [PYROXAMIDE]
OUTPUT: inactive

INPUT: Dear colleague, could you share the recorded outcome for "Cc1ccc(/N=N/c2c(C)nn(C(=O)CC(=O)Nc3ccc(Cl)cc3)c2C)cc1C" when you have a moment?
OUTPUT: inactive

INPUT: What outcome does the record of this test show for C=C1CC2(CCOc3ccc(Cl)cc32)OC1=O (stereo unspecified) ?
OUTPUT: inactive

INPUT: Please share the test call associated with "O=C(NC(=O)c1cn(CCN2CCNCC2)c(=O)[nH]c1=O)OCc1ccccc1" .
OUTPUT: inactive

INPUT: Which outcome was assigned to "CCOc1ccc(/C=C(\Cl)c2ccc(OC)c(OC)c2)cc1" in this test?
OUTPUT: inactive

INPUT: Write down the call the test reported for this compound. Item: "Oc1ccc(SCc2ccc(NCc3ccccc3)cc2)cc1"
OUTPUT: inactive

INPUT: Hi, sorry to bother you, what did the test record for COC(=O)c1cccc(C)c1C1CN=NC12Cc1cc(C)cc(C)c1C2=O (stereo unspecified) ?
OUTPUT: inactive

INPUT: Please let me know the test result on file for COC(=O)C1=CO[C@@H](OC2CC(CO)C(O)C(O)C2O)[C@@H]2[C@@H](C)[C@@H](OC(=O)/C=C/c3ccccc3)[C@@H](O)[C@H]12.COC(=O)C1=CO[C@@H](OC2CC(CO)C(O)C(O)C2O)[C@@H]2[C@@H](C)[C@@H](OC(=O)c3ccccc3)[C@@H](O)[C@H]12 (stereo partly specified) .
OUTPUT: inactive

INPUT: Could you please tell me the result logged for O=S(=O)(c1ccccc1)C1CN2OC1(S(=O)(=O)c1ccccc1)CC21CCCCC1 (stereo unspecified) in this assay?
OUTPUT: inactive

INPUT: Assay result, entry COCC1N=C(c2cc(OC)c(OC)c(OC)c2-c2cc3c(cc2[C@H](C)O)OCO3)O[C@H]1c1ccccc1 (stereo partly specified) — outcome?
OUTPUT: inactive

INPUT: Look up the recorded call for "O=C1NC(=S)NC(=O)C1=CC1CC1" in this test.
OUTPUT: inactive

INPUT: Recorded call for "O=C1/C(=C\c2ccccc2)c2ccccc2N1/N=C\c1ccccc1" ?
OUTPUT: inactive
